Molecular target: TDO2 (Homo sapiens, UniProt P48775)
Construct: decreased levels of NFK in SW48 cells (high TDO expressing cells)
Sequence (P48775 whole entry): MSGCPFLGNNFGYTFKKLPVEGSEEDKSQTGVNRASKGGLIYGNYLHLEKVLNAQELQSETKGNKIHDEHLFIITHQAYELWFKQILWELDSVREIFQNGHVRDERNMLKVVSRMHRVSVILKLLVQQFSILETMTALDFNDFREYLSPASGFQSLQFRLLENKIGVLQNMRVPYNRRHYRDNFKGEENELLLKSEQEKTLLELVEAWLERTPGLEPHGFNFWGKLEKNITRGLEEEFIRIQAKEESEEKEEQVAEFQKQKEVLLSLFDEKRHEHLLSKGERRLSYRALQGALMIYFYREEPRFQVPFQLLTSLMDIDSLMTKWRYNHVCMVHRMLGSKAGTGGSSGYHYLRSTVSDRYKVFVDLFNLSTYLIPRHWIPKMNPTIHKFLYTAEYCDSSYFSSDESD
Experiment: TDO2 cell assay (NFK GreenScreen, SW48 cells)
Assay type: cell-based
Conditions: SW48 cells (high TDO expressing), 200 uM tryptophan, 24 hours; Table 3; read-out: TDO2 Cell Fluor EC50
ASSAY ENDPOINT: pEC50
Keep it numeric: pEC50 is minus log10 of the concentration in mol/L.

Determine its reported pEC50: Nc1ncc2c(n1)CCC(C1c3ccccc3-c3cncn31)C2O (single isomer, unassigned) [Example 111e]
5.24

Please list pEC50 recorded for the molecule CS(=O)(=O)c1ccc2c(c1)CCC(C1c3ccccc3-c3cncn31)C2O (single isomer, unassigned) [Example 36e]
5.57

Determine its reported pEC50: OC1CCCC1C1c2ccccc2-c2cncn21 (single isomer, unassigned) [Example 02e]
4.77

Please look at this molecule and report its pEC50: N#Cc1ccc2c(c1)CCC(C1c3ccccc3-c3cncn31)C2O (single isomer, unassigned) [Example 62a]
5.00

Quote pEC50 reported for CS(=O)(=O)N1CCC2(CC1)CC(C1c3ccccc3-c3cncn31)C2O (single isomer, unassigned) [Example 179h] please.
5.07

Report measured pEC50; entry is OC1CCC(F)(F)CC1C1c2ccccc2-c2cncn21 (single isomer, unassigned) [Example 18d]
5.10

State its pEC50: NS(=O)(=O)N1CCC2(CC1)CC(C1c3ccccc3-c3cncn31)C2O (single isomer, unassigned) [Example 181e]
4.92

Return pEC50 (reported value) for this molecule: OC1C(C2c3ccccc3-c3cncn32)CC12CCOCC2 (single isomer, unassigned) [Example 57c]
6.40

Answer with the recorded pEC50 for the molecule listed here: NS(=O)(=O)N1CCC2(CC1)CC(C1c3ccccc3-c3cncn31)C2O (single isomer, unassigned) [Example 181f]
6.70

Please give the documented pEC50 of O[C@H]1c2cccnc2CC[C@@H]1[C@H]1c2ccccc2-c2cncn21 [Example 31b]
5.85

Look up and report measured pEC50 for this entry: OC1COCCC1C1c2cc(F)ccc2-c2cncn21 (single isomer, unassigned) [Example 75-1c]
6.96

Hello, please tell me recorded pEC50 for this one: OC1c2ccccc2CC1C1c2ccccc2-c2cncn21 (single isomer, unassigned) [Example 19e]
5.70

Using the record for OC1c2cnncc2CCC1C1c2ccccc2-c2cncn21 (single isomer, unassigned) [Example 112f] , state its measured pEC50.
5.42

In one line, give reported pEC50 of the entry Cc1ccc2c(c1)-c1cncn1C2C1COCC1O (single isomer, unassigned) [Example 171d] .
4.75

Answer with the recorded pEC50 of CCS(=O)(=O)N1CCC2(CCC(C3c4ccccc4-c4cncn43)C2O)CC1 (single isomer, unassigned) [Example 76b] only.
4.82

Identify pEC50 associated with the molecule NS(=O)(=O)N1CCC2(CC1)CC(C1c3ccccc3-c3cncn31)C2O (single isomer, unassigned) [Example 181h]
4.96

// Input: OC1c2cccn2CCC1C1c2ccccc2-c2cncn21 (single isomer, unassigned) [Example 136g] . Output its pEC50 only.
6.70

Give pEC50 for the following molecule: Nc1ccc2c(n1)CCC(C1c3ccccc3-c3cncn31)C2O (single isomer, unassigned) [Example 121d]
4.77

Report pEC50 for NS(=O)(=O)N1CC(O)C(C2c3ccccc3-c3cncn32)C1 (single isomer, unassigned) [Example 28b]
5.36

Identify measured pEC50 associated with OC1c2cncn2CCC1C1c2ccccc2-c2cncn21 (single isomer, unassigned) [Example 07a]
4.82

Note down pEC50 recorded for CS(=O)(=O)N1CCC2(CC1)CC(C1c3ccccc3-c3cncn31)C2O (single isomer, unassigned) [Example 179d]
6.27

Name the recorded pEC50 of the item OC(C1CC1)C1c2ccccc2-c2cncn21 (single isomer, unassigned) [Example 52d] in your answer.
5.70

Give the reported value of pEC50 for this record: NC(=O)c1ccc2c(n1)CCC(C1c3ccccc3-c3cncn31)C2O (single isomer, unassigned) [Example 104c]
4.64
